Origin of values: patent US20230227548A1

Biological target: T1, human GPRC5D (human, UniProt Q9NZD1 1-345)
T1 construct: on transfected HEK293 or RBL cells, or endogenous on MM1R, H929, OPM2, LP-1, JIM3 and patient plasma cells; also called G-protein coupled receptor family C group 5 member D; hGPRC5D
T1 sequence (Q9NZD1 whole entry): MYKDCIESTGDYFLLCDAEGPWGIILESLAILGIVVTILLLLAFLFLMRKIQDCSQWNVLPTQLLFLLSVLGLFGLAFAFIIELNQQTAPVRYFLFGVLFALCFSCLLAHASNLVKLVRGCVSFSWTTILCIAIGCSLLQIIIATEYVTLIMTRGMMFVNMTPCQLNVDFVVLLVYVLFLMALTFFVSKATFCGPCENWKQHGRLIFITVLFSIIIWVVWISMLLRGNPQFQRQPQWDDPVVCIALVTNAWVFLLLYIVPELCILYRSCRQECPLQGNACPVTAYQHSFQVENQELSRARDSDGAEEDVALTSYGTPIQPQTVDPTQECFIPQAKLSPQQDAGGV
Assay: FACS, human GPRC5D cells
Endpoint: binding result

- Binder: "GC5B501 (antibody, V domains shown, GC5B164 PTM variant, Hc GC5H248) VH: EVQLVQSGAEVKKPGESLKISCKGSGYSFTSYWIGWVRQMPGKGLEWMGIIYPGASDTRYSPSFQGQVTISADKSISTAYLQWSSLKASDTAMYYCARVYSFGGRHKALFDYWGQGTLVTVSS VL: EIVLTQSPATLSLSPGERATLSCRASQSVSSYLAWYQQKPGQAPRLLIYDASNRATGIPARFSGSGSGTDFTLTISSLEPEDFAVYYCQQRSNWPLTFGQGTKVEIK"
  Endpoint: "binding result"
  Measured: "binds"
- Binder: "GC5B485 (antibody, V domains shown, GC5B164 PTM variant, Hc GC5H264) VH: EVQLVQSGAEVKKPGESLKISCKGSGYSFTSYAIGWVRQMPGKGLEWMGIIYPGKSDTRYSPSFQGQVTISADKSISTAYLQWSSLKASDTAMYYCARVYSFGGRHKALFDYWGQGTLVTVSS VL: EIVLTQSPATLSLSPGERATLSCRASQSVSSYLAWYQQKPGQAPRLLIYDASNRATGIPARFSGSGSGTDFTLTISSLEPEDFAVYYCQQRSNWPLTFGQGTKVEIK"
  Endpoint: "binding result"
  Measured: "binds"
- Binder: "GC5B495 (antibody, V domains shown, GC5B164 PTM variant, Hc GC5H254) VH: EVQLVQSGAEVKKPGESLKISCKGSGYSFTSYAIGWVRQMPGKGLEWMGIIYPGYSDTRYSPSFQGQVTISADKSISTAYLQWSSLKASDTAMYYCARVYSFGGRHKALFDYWGQGTLVTVSS VL: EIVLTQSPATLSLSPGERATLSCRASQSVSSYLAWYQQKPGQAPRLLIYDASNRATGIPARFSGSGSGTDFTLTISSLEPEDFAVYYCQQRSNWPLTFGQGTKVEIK"
  Endpoint: "binding result"
  Measured: "binds"
